Test: Lipophilicity, log D of compound at pH 7.4
Format: physicochemical
Details: buffer
Property Name: logD

Cc1cc(S(=O)(=O)N2CC[C@@H](F)[C@@H]2c2ccc(F)cc2)cc(C)c1F    3.9
O=S(=O)(c1cccnc1)N1[C@H](CO)CC[C@@H]1c1ccc(F)cc1    1.1
CNC[C@@H]1CC[C@H](c2ccc(F)cc2)N1S(=O)(=O)c1cc(C)c(F)c(C)c1    2.7
Cc1cc(S(=O)(=O)N2[C@H](CO)CC[C@@H]2c2ccc(F)cc2)ccc1F    2.8
Cc1cc(S(=O)(=O)N2[C@H](CN(C)C)CC[C@@H]2c2ccc(F)cc2)cc(C)c1F    3.7
O=S(=O)(c1ccc(F)cn1)N1[C@H](CO)CC[C@@H]1c1ccc(F)cc1    2
Cc1cc(CN2[C@H](CO)CC[C@@H]2c2ccc(F)cc2)cc(C)c1F    4
O=S(=O)(c1cc(Cl)c(F)c(Cl)c1)N1CCC[C@@H]1c1ccc(F)cc1    4.6
O=S(=O)(c1ccc(F)cc1)N1CCC[C@@H]1c1ccc(F)cc1    3.2
Cc1cc(S(=O)(=O)N2[C@H](CO)CC[C@@H]2c2ccc(F)cc2)cc(C)c1F    3.3
O=S(=O)(c1cc(Cl)c(F)c(Cl)c1)N1[C@H](CO)CC[C@@H]1c1ccc(F)cc1    3.8
COC[C@@H]1CC[C@H](c2ccc(F)cc2)N1S(=O)(=O)c1cc(C)c(F)c(C)c1    3.9
Cc1cc(C)cc(S(=O)(=O)N2[C@H](CO)CC[C@@H]2c2ccc(F)cc2)c1    3.2
Cc1cc(S(=O)(=O)N2[C@H](CNCC(F)(F)F)CC[C@@H]2c2ccc(F)cc2)cc(C)c1F    4.3
Cc1cc(S(=O)(=O)N2C[C@H](F)C[C@@H]2c2ccc(F)cc2)cc(C)c1F    2.6

====

Assay: Plasma protein binding in human
Type: ADME, cell-free
Settings: read-out: PPB (converted)
Property Name: fraction unbound

O=S(=O)(c1cc(Cl)c(F)c(Cl)c1)N1[C@H](CO)CC[C@@H]1c1ccc(F)cc1    0.006

====

Molecular target: Transient receptor potential cation channel subfamily A member 1 (Homo sapiens, UniProt O75762)
Sequence (O75762 whole entry): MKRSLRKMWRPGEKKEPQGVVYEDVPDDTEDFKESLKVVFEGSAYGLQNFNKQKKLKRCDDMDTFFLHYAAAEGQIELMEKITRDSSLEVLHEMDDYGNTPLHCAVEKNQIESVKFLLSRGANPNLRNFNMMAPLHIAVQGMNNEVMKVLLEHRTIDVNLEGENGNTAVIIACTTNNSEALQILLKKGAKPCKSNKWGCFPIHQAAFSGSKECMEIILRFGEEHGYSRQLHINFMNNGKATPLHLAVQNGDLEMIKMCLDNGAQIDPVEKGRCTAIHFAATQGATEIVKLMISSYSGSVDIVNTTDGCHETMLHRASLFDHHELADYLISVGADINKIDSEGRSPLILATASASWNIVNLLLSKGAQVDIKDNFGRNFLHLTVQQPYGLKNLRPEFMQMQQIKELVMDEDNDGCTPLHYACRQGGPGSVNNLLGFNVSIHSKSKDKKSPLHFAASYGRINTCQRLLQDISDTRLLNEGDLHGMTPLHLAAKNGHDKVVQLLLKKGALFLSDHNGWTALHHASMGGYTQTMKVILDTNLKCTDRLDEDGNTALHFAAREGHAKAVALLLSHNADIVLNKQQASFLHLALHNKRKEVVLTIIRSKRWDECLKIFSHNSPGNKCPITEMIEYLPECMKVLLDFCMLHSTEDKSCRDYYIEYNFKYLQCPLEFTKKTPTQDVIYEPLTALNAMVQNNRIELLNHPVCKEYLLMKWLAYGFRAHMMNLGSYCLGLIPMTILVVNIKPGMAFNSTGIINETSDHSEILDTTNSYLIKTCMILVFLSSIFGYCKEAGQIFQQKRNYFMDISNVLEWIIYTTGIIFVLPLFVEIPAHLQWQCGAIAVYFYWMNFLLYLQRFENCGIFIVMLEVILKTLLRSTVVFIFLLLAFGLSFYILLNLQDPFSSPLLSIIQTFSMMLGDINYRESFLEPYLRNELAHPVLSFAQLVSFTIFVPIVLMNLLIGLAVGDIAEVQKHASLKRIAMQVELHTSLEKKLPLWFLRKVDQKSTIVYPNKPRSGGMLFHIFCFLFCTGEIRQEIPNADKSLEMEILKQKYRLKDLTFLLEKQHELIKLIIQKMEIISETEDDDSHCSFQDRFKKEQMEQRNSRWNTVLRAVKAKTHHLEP
Property Name: log10 of IC50 (log10 of the value in µM)

Cc1cc(S(=O)(=O)N2C[C@H](F)C[C@@H]2c2ccc(F)cc2)cc(C)c1F    -0.42
Cc1cc(C)cc(S(=O)(=O)N2[C@H](CO)CC[C@@H]2c2ccc(F)cc2)c1    -0.54
Cc1cc(S(=O)(=O)N2CC[C@@H](F)[C@@H]2c2ccc(F)cc2)cc(C)c1F    -1.70
O=S(=O)(c1cc(Cl)c(F)c(Cl)c1)N1CCC[C@@H]1c1ccc(F)cc1    -0.46
Cc1cc(S(=O)(=O)N2[C@H](CO)CC[C@@H]2c2ccc(F)cc2)cc(C)c1F    -1.20
O=S(=O)(c1cc(Cl)c(F)c(Cl)c1)N1[C@H](CO)CC[C@@H]1c1ccc(F)cc1    -0.96

====

Test: Kinetic solubility of compound
Type: physicochemical
Conditions: read-out: Kinetic_solubility
Property Name: solubility kinetic

O=S(=O)(c1cc(Cl)c(F)c(Cl)c1)N1[C@H](CO)CC[C@@H]1c1ccc(F)cc1    < 1 µM

All figures here come from ChEMBL document CHEMBL3751794.
